tested on: 786-0 renal; experiment: NCI-60 one-dose screen, 48 h; settings: 10 µM
This is part of a sample that, as a whole, favours compounds with a hit. Of some 83,000 tested, about 20% had one in any assay. Activity calls are given as the source filed them. How the source made its calls: active means growth percent below 10; inactive means the rest.
Hello, when you answer, please use one of the following outcomes: active, inactive

Consider the worked cases shown below.
Compound: CC(=C(c1ccc(OCCN2CCCCCC2)cc1)c1ccc(OCCN2CCCCCC2)cc1)c1ccc(Cl)cc1
Group: active

Compound: O=C(N/C(=C1/OCCN1Cc1ccccc1)[P+](c1ccccc1)(c1ccccc1)c1ccccc1)c1ccccc1
Group: active

## Task Dear colleague, could you share the recorded outcome for `O=C1N/C(=N\c2nccs2)S/C1=C\c1cccs1` when you have a moment?
## Result inactive

## Task Dear colleague, could you share the recorded outcome for `CC(=O)Nc1nc(-c2ccc(N3CCN(C)CC3)c(NS(=O)(=O)c3cccc4c(N(C)C)cccc34)c2)cs1` when you have a moment?
## Result inactive

## Task Dear colleague, could you share the recorded outcome for COc1ccc([C@H]2C(C(=O)c3ccc(Cl)cc3)C3(N[C@@H]2c2ccccc2)C(=O)Nc2ccc(Br)cc23)cc1 (some centres undefined) when you have a moment?
## Result active

## Task Dear colleague, could you share the recorded outcome for `O=C(N=Nc1c(O)[nH]c2ccc(Br)cc12)c1ccc2nc(-c3ccccc3)[nH]c2c1` when you have a moment?
## Result active

## Task Dear colleague, could you share the recorded outcome for `CCN1CCN(c2ccc(NC(=O)Nc3ccc4c(c3F)CCN4c3ccnc(C(=O)NC)c3)cc2C(F)(F)F)CC1` when you have a moment?
## Result active

## Task Dear colleague, could you share the recorded outcome for O=C(c1ccc(Cl)cc1)C1[C@H](c2ccccc2Br)[C@@H](c2ccccc2)NC12C(=O)Nc1ccccc12 (some centres undefined) when you have a moment?
## Result inactive

## Task Dear colleague, could you share the recorded outcome for `O=C(COc1ccc(NC(=O)Nc2ccc(Cl)cc2)cc1)N=Nc1c(O)[nH]c2ccc([N+](=O)[O-])cc12` when you have a moment?
## Result inactive

## Task Dear colleague, could you share the recorded outcome for `COC(=O)c1c(C(=O)OC)c2n(c1C)[C@@H]([C@@H](C)[C@H]1CC[C@H]3[C@@H]4CCC5=CC(=O)CC[C@]5(C)[C@H]4CC[C@]13C)SC2` when you have a moment?
## Result inactive

## Task Dear colleague, could you share the recorded outcome for C=C1CCC2C3(C)COC(c4c(F)cccc4F)OC3CCC2(C)C1C/C=C1/C(=O)OCC1O (centres undefined) when you have a moment?
## Result active

----------
test system: MDA-MB-435 melanoma; assay: NCI-60 one-dose screen, 48 h (100 = growth as untreated, 0 = no growth, -100 = all killed); conditions: 10 µM
This is part of a sample that, as a whole, favours compounds with a hit. Of some 83,000 tested, about 20% had one in any assay.
Would you mind telling me the reported growth of each entry?
Give bare numbers, in %.

Here's what some known entries look like.
Compound: COc1ccc(-c2nc(-c3ccccc3)c(-c3ccccc3)n2-c2ccc(S(=O)(=O)Nc3ncccn3)cc2)cc1OC
Value unit: %
growth: 95.1
//
Compound: NS(=O)(=O)c1ccc(NC(=O)CSc2ccc(-c3ccc(Cl)cc3)nn2)c(Br)c1
Value unit: %
growth: 84.8
//
Compound: CN1C(=O)N(C)C2SC(N/N=C/c3ccccc3F)=NC21 (stereo unspecified)
Value unit: %
growth: -16.6

Quick one: give me growth for each item below, same order please.
1. Nc1nc2c(F)c(F)c(F)c(F)c2s1
2. COc1ccc(Nc2nc(N)n(Cc3cccc(Br)c3)n2)cc1
3. O=C(NO)c1ccc(CNc2nc(-c3ccccc3)c3ccccc3n2)cc1
4. O=C1Nc2cc(Cl)ccc2/C1=C/c1cccc(OCc2ccc(Br)cc2F)c1
5. O=C1Nc2ccc(Cl)cc2/C1=C/c1ccc(OCc2ccc(Br)cc2F)cc1
6. O=C1Nc2cc(Cl)ccc2/C1=C/c1cccc(OCc2ccccc2)c1

## Result
1. 101
2. -18.2
3. 4.16
4. -64.4
5. 60.2
6. 10.5

Quick one: give me growth for each item below, same order please.
1. O=c1c2ccccc2nc(COc2ccccc2)n1/N=C/c1ccc(N2CCOCC2)cc1
2. CSc1nc(-c2cccc(C)c2)c2cc(-c3ccccc3)n(C)c2n1

## Result
1. 99.3
2. -39.3

----------
system: MALME-3M melanoma; experiment: NCI-60 one-dose screen, 48 h; conditions: 10 µM
The panel holds about 83,000 compounds, 20% with a hit somewhere; the sample as a whole holds those more often. The source made the active and inactive calls. The calls were made as follows: active = growth percent below 10; inactive = the rest.
Hello, when you answer, please use one of the following outcomes: T for active, F for inactive

Consider the worked cases shown below.
Cpd smiles: O=C(NO)c1ccc(CNc2nc(-c3ccccc3)c3ccccc3n2)cc1
Group: T
//
Cpd smiles: O=[N+]([O-])c1ccc(-c2nc(-c3ccccc3)c(-c3ccccc3)n2-c2ccc(S(=O)(=O)Nc3ncccn3)cc2)cc1
Group: F
//
Cpd smiles: O=C(CNc1nc(-c2ccccc2)cs1)Nc1ccc(Br)cc1
Group: T
//
Cpd smiles: COc1cccc(/C=N/NC(=O)c2ccc3nc(-c4ccc(Cl)cc4)[nH]c3c2)c1O
Group: T
//
Cpd smiles: CC1(C)CC[C@]23CC[C@]4(C)[C@H](CC[C@@H]5[C@@]6(C)CC[C@H](N)C(C)(C)[C@@H]6CC[C@]54C)[C@H]2[C@H]1OC3=O
Group: T

Now look at this one.
## Task Dear colleague, could you share the recorded outcome for `Nc1nc(Nc2ccccc2)nn1Cc1c(Cl)cccc1Cl` when you have a moment?
## Result F

----------
Tested on: HCT-15 colon
Assay: NCI-60 one-dose screen, 48 h
Settings: 10 µM
Description: Growth inhibition of the HCT-15 human tumor cell line is measured as a screen for anti-cancer activity. Cells are grown in 96 well plates and exposed to the test compound for 48 hours. Compounds are tested at a single concentration, which is 10^-5 M for most compounds. The reported endpoint is percent growth (GI% or GIPRCNT), where numbers from 0 - 100% represent growth inhibition, and numbers from -100% - 0 represent cell death. For example, a value of 40 represents 60% growth inhibition. […]
This is part of a sample that, as a whole, favours compounds with a hit. Of some 83,000 tested, about 20% had one in any assay. Activity calls are given as the source filed them. The calls were made as follows: active = growth percent below 10; inactive = the rest.
Hello, when you answer, please use one of the following outcomes: yes (1) for active, no (0) for inactive

Compound: CC(=O)C1=C(C)NC(SCC(=O)Nc2ccc(S(=O)(=O)Nc3cc(C)on3)cc2)=NC1c1ccccc1 (centres undefined)
Group: no (0)
//
Compound: O=c1oc2ccc(-c3ccc(F)cc3F)cc2c(=O)n1-c1ccc(Cl)c(C(F)(F)F)c1
Group: yes (1)
//
Compound: CCCCCc1ccc(S(=O)(=O)Nc2cc(-c3csc(N(C)C(C)=O)n3)ccc2N2CCN(C)CC2)cc1
Group: yes (1)
//
Compound: O=C(NC(=S)N1CCN(c2ncnc3c2cnn3-c2ccccc2)CC1)c1ccc(Cl)cc1
Group: no (0)
//
Compound: O=C(Nc1cccc([N+](=O)[O-])c1)Nc1cccc([N+](=O)[O-])c1
Group: no (0)

Now look at this one.
## Task Dear colleague, could you share the recorded outcome for C=C1CCC2C3(C)COC(c4cccc(F)c4)OC3CCC2(C)C1CC(O)C1=CCOC1=O (centres undefined) when you have a moment?
## Result yes (1)

----------
Would you mind telling me the reported growth of each entry?
tested on: SW-620 colon; assay: NCI-60 one-dose screen, 48 h (100 = growth as untreated, 0 = no growth, -100 = all killed); conditions: 10 µM
About 83,000 compounds went through this panel and 20% of them were active in at least one assay; those are over-represented in the sample as a whole.
One number for each entry, in %.

Molecule: C=CC(=O)Nc1ccc(C(=O)/C=C/c2ccc(N(C)CCF)cc2)c(O)c1
growth / %: 5.99
--
Molecule: O=C(Nc1ccccc1)Nc1nc2ccccc2s1
growth / %: 111
--
Molecule: COc1ccc2nc(Cl)c(-c3cc(-c4ccccc4)nc(=S)[nH]3)cc2c1
growth / %: 78.9
--
Molecule: C/C(=N\NC(N)=S)c1ccc(Nc2nc(SC(C)C)nc(-c3ccccc3)c2C#N)cc1
growth / %: 85.8
--
Molecule: CCOC(=O)C1=C(N)N(c2ccccc2)C2=C(C(=O)CC(C)(C)C2)C1c1ccccc1OC (centres undefined)
growth / %: 107

Quick one: give me growth for each item below, same order please.
1. Cc1ccc(NC(=O)c2ccc(-n3c(=O)[nH]c4ccccc4c3=O)cc2)cc1
2. CC1CC(c2ccc(N(C)C)cc2)=NN1c1nc(O)c(C2=c3cc(Br)ccc3=NC2=O)s1 (centres undefined)
3. COc1ccc2[nH]c(O)c(N=NC(=O)COc3ccc(NC(=O)Nc4ccc(Cl)c(Cl)c4)cc3)c2c1
4. O=C1Nc2ccc(F)cc2/C1=C/c1cccc(OCc2ccccn2)c1

## Result
113
78.9
3.28
-0.341
